What shrunken log2 fold change was measured for each of the following?
# System: Escherichia coli TOP10;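 further: peptides expressed intracellularly from a pBAD plasmid library in pooled LB shake-flask culture, induced with 0.3% L-arabinose, DNA abundance read by NGS, three biological replicates, DESeq2 with apeglm shrinkage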
# protocol: shrunken log2 fold change of peptide-encoding DNA abundance (4.5 h post-induction vs induction); higher = less antimicrobial activity (less host growth inhibition)
# experimental-context: time post-induction: 4.5 h; library: site-saturation at positions 5, 18, 19, 20
Lab note: jot down the number only; don't add units.

Record summary for RRIRPRPPRLPRPRPRPELYPRP : reported shrunken log2 fold change = 0.0891

Note to self: shrunken log2 fold change recorded for RRIRRRPPRLPRPRPRPKGEPRP was 0.0115

// recorded shrunken log2 fold change for RRIRLRPPRLPRPRPRPLKFPRP : -0.57

According to the records, this sequence RRIRLRPPRLPRPRPRPQSEPRP displays shrunken log2 fold change of -0.0331

Record RRIRNRPPRLPRPRPRPTGLPRP . Reported shrunken log2 fold change: 0.0817

Just so you know, measured shrunken log2 fold change for RRIRNRPPRLPRPRPRPAHQPRP came out at -0.108

The sequence listed as RRIRQRPPRLPRPRPRPDRCPRP shows shrunken log2 fold change equal to 0.298

In plain terms, RRIRWRPPRLPRPRPRPDCRPRP has a documented shrunken log2 fold change of 0.0695

Input RRIRHRPPRLPRPRPRPICLPRP . Output shrunken log2 fold change: -0.225

The recorded shrunken log2 fold change for RRIRIRPPRLPRPRPRPYCCPRP is -0.476

Entry RRIRNRPPRLPRPRPRPNSPPRP — recorded shrunken log2 fold change = 0.0941

response.value for RRIRLRPPRLPRPRPRPLNEPRP (field: shrunken log2 fold change) = -0.0224

So for RRIRHRPPRLPRPRPRPKRYPRP , the logged shrunken log2 fold change turned out to be -0.0093

Value of measured shrunken log2 fold change for the entry RRIRVRPPRLPRPRPRPEHFPRP : 0.131

For this sequence ( RRIRKRPPRLPRPRPRPSYEPRP ), measured shrunken log2 fold change is -0.304
